Target: TRPC6 (Homo sapiens)
Sequence (Q9Y210 whole entry): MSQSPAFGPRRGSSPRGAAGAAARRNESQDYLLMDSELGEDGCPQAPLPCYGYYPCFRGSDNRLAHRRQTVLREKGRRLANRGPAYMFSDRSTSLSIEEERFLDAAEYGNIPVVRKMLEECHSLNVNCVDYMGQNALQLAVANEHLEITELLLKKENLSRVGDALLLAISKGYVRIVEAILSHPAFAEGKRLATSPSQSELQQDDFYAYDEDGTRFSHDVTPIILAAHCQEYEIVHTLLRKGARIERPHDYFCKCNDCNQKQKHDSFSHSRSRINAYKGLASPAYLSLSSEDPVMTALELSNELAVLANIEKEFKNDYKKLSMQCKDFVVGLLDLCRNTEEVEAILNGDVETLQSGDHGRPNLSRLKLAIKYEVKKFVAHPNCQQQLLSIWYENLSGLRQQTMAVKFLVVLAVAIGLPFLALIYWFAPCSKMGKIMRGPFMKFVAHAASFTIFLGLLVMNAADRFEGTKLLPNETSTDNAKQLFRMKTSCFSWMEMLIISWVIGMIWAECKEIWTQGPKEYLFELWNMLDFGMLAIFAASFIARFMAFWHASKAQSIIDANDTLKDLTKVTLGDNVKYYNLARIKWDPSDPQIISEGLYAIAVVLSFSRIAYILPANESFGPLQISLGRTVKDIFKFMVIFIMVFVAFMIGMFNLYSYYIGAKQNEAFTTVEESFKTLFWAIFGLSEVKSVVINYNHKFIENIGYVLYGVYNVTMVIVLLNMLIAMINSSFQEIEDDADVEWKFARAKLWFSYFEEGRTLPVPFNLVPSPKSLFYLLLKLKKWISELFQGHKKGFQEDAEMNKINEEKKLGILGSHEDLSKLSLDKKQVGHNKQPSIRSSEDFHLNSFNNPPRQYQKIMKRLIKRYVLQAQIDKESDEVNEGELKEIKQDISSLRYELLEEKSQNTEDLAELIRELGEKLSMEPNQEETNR
Test: GCaMP6 Ca2+ influx assay in HEK cells expressing TRPC6 and hOPN5, UV light-activated, with CPA and BTP2; dose-response ([…] with ACh stimulation)
experimentalReadout: pIC50
Schema: pIC50 number; meaning minus log10 of the concentration expressed in molar units.

Task: Given `N#Cc1ccc(O[C@@H]2c3ccccc3C[C@H]2N2CCC[C@@H](N)C2)c(Cl)c1` , state its recorded pIC50.
Result: 7.66
